- studySystem: recombinant human GAR Tfase (rhGAR Tfase) (Homo sapiens)
- Construct: includes residues 808-1010 from the human trifunctional enzyme (purD-purM-purN); hexa-histidine (C); made in house; host or cells: E. coli BL21 (DE3) Gold, pet22b vector
- assayExplanation: Recombinant human GAR Tfase inhibition
- Type: biochemical
valueKind: Ki (nM)

molecule	valueKind	experimentalValue
Nc1nc(N)c(CCCC(C=O)c2ccc(C(=O)N[C@@H](CCC(=O)O)C(=O)O)cc2)c(=O)[nH]1 (stereo partly shown)	Ki	14

###

Form field: Ki (one value per entry).
- studySystem: recombinant human GAR Tfase (rhGAR Tfase) (Homo sapiens)
- Construct: includes residues 808-1010 from the human trifunctional enzyme (purD-purM-purN); hexa-histidine (C); made in house; host or cells: E. coli BL21 (DE3) Gold, pet22b vector
- Sequence (P22102 808-1010): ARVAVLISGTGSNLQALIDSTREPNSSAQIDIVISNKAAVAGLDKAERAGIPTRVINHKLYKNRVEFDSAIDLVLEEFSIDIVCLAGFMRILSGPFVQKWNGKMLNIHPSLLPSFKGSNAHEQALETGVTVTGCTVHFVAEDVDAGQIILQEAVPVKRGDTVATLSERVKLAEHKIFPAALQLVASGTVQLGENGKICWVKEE
- assayExplanation: Recombinant human GAR Tfase inhibition
- Assay type: biochemical
- runConditions: rhGAR Tfase; read-out: Ki
valueKind: Ki (nM)

molecule	experimentalValue
CN(C)N=CC(CCCc1c(N)nc(N)[nH]c1=O)c1ccc(C(=O)N[C@@H](CCC(=O)O)C(=O)O)cc1 (some centres unmarked) [Compound 15]	170
Nc1nc(N)c(CCCC(c2ccc(C(=O)N[C@@H](CCC(=O)O)C(=O)O)cc2)C(O)C(F)(F)F)c(=O)[nH]1 (some centres unmarked) [Compound 102]	900

###

Form field: Ki (one value per entry).
- studySystem: DHFR (Escherichia coli, UniProt P0ABQ4)

molecule	Ki
Nc1nc(N)c(CCCC(C(=O)C(F)(F)F)c2ccc(C(=O)N[C@@H](CCC(=O)O)C(=O)O)cc2)c(=O)[nH]1 (some centres unmarked)	> 100 µM
Nc1nc(N)c(CCCC(c2ccc(C(=O)N[C@@H](CCC(=O)O)C(=O)O)cc2)C(O)C(F)(F)F)c(=O)[nH]1 (some centres unmarked)	> 100 µM

###

- System: CCRF-CEM/MTX cell line
- assayExplanation: Cytotoxic assay, reduced folate carrier deficient mutant
- Type: cell-based, human
- runConditions: impaired reduced folate carrier
- Protocol: The cytotoxic activity of the compounds was measured using CCRF-CEM human leukemia cells, as described previously (Boger, D. L., et al., Bioorg. Med. Chem. 1997, 5, 1847-1852). Two mutant cell lines, CCRF-CEM/MTX and CCRF-CEM/FPGS^− were used to determine the dependence on the reduced folate active transport system and folylpolyglutamate synthetase (FPGS), respectively (Jansen, G., et al., Cancer Res. 1989, 49, 2455-2459).

molecule	cytotoxic activity (in words)
Nc1nc(N)c(CCCC(c2ccc(C(=O)N[C@@H](CCC(=O)O)C(=O)O)cc2)C(O)C(F)(F)F)c(=O)[nH]1 (stereo partly drawn) [Compound 102]	lost activity
Nc1nc(N)c(CCCC(C(=O)C(F)(F)F)c2ccc(C(=O)N[C@@H](CCC(=O)O)C(=O)O)cc2)c(=O)[nH]1 (stereo partly drawn) [Compound 101]	lost activity
Nc1nc2c(c(=O)[nH]1)C[C@@H](CCc1ccc(C(=O)N[C@@H](CCC(=O)O)C(=O)O)cc1)CN2 [Lometrexol, (6R)-5,10-dideazatetrahydrofolate, reference compound]	lost activity

###

- studySystem: UniProt P04818
- assayExplanation: Thymidylate synthetase inhibition
- Type: biochemical
- runConditions: TS
pKi: −log10 of the molar value.

compound	pKi
Nc1nc(N)c(CCCC(C(=O)C(F)(F)F)c2ccc(C(=O)N[C@@H](CCC(=O)O)C(=O)O)cc2)c(=O)[nH]1 (some centres unmarked)	< 4.00
Nc1nc(N)c(CCCC(c2ccc(C(=O)N[C@@H](CCC(=O)O)C(=O)O)cc2)C(O)C(F)(F)F)c(=O)[nH]1 (some centres unmarked)	< 4.00

###

- Tested on: CCRF-CEM/FPGS^− cell line
- assayExplanation: Cytotoxic assay, FPGS deficient mutant
- Type: cell-based, human
- runConditions: lacks folylpolyglutamate synthase

compound	cytotoxic activity (in words)
Nc1nc(N)c(CCCC(C(=O)C(F)(F)F)c2ccc(C(=O)N[C@@H](CCC(=O)O)C(=O)O)cc2)c(=O)[nH]1 (some centres unmarked) [Compound 101]	lacked or lost activity
Nc1nc(N)c(CCCC(c2ccc(C(=O)N[C@@H](CCC(=O)O)C(=O)O)cc2)C(O)C(F)(F)F)c(=O)[nH]1 (some centres unmarked) [Compound 102]	lacked or lost activity
Nc1nc(N)c(CCCC(=O)c2ccc(C(=O)N[C@@H](CCC(=O)O)C(=O)O)cc2)c(=O)[nH]1 [Compound 14]	inactivity
Nc1nc2c(c(=O)[nH]1)C[C@@H](CCc1ccc(C(=O)N[C@@H](CCC(=O)O)C(=O)O)cc1)CN2 [Lometrexol, (6R)-5,10-dideazatetrahydrofolate, reference compound]	lacked or lost activity
Nc1nc(N)c(CCCC(CO)c2ccc(C(=O)N[C@@H](CCC(=O)O)C(=O)O)cc2)c(=O)[nH]1 (some centres unmarked) [Compound 17]	inactivity

Data origin: patent US20070167377A1
